src = patent US9193729B2

# subject-of-test: UniProtKB Q6RI86
# Sequence (Q6RI86 whole entry): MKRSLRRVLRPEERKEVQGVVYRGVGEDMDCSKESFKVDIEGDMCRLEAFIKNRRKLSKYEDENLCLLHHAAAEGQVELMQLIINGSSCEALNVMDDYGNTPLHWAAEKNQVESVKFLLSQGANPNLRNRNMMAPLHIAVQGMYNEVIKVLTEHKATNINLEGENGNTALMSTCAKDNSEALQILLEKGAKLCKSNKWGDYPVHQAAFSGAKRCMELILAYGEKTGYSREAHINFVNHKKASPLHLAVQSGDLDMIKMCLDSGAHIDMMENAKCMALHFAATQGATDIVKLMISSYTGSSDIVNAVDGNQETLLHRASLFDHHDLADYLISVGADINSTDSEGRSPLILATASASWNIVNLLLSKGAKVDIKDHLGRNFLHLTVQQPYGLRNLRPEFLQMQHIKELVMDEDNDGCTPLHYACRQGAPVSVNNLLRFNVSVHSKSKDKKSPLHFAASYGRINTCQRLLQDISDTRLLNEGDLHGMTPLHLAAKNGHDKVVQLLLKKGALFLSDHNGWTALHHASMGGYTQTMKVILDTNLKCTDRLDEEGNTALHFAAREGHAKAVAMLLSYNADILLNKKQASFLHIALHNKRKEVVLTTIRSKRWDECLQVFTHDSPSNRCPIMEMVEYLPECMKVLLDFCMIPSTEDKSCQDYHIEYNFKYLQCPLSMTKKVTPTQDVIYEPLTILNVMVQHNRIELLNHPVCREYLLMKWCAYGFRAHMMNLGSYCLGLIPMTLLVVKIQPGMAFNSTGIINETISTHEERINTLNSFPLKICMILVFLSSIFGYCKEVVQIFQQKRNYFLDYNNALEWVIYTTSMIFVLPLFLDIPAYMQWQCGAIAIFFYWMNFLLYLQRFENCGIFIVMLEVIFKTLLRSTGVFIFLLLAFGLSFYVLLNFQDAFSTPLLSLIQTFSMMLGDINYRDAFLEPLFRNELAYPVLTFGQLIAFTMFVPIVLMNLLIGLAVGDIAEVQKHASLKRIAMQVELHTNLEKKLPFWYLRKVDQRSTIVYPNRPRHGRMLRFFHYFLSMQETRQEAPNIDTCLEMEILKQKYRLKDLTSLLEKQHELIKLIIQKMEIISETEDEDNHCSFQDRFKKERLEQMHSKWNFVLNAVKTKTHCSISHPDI
# experimental-details: Whole-cell patch clamp inhibition of rTRPA1
# condition-description: rTRPA1, 10 micromolar AITC activation; read-out: IC50 Inward current
recorded-metric: IC50

IC50 lookup needed for C[C@H]1CCCN1c1ncc(-c2cccc(NC(=O)Cn3cnc4c3c(=O)n(C)c(=O)n4C)n2)cn1 , thanks. ~100 nM

---

# subject-of-test: hERG (Homo sapiens)
# Sequence (Q12809 whole entry): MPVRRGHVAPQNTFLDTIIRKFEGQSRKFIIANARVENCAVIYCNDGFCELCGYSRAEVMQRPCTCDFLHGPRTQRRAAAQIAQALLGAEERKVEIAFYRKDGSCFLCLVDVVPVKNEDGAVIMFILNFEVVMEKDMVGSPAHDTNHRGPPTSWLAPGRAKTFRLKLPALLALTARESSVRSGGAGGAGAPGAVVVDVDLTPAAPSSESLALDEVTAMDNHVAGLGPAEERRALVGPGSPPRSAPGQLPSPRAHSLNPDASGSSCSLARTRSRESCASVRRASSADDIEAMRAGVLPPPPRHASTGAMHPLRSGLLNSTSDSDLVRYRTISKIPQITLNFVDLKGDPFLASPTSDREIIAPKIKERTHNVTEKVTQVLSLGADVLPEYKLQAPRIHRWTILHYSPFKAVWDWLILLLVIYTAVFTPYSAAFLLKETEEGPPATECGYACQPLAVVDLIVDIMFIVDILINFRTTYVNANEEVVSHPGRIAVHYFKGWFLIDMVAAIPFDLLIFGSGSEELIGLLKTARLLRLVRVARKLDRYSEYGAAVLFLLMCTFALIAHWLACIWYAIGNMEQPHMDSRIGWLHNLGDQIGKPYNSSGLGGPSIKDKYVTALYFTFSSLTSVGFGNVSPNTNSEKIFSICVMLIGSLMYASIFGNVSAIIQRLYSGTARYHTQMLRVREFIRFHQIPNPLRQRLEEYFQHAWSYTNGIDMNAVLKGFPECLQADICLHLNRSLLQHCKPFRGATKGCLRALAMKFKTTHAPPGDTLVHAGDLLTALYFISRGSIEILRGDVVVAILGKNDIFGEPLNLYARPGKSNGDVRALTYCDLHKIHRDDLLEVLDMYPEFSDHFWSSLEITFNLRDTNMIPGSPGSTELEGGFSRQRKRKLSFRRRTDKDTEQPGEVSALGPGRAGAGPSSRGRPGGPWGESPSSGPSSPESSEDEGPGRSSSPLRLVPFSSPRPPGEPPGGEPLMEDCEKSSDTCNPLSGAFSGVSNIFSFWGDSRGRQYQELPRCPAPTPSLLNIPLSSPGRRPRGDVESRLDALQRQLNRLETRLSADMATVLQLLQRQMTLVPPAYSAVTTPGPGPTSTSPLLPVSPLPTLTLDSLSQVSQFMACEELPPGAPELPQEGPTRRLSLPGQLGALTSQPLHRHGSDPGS
# experimental-details: Patch clamp selectivity, hERG
# condition-description: same procedure as Example 3
recorded-metric: IC50

Form field: reported IC50 of C[C@H]1CCCN1c1ncc(-c2cccc(NC(=O)Cn3cnc4[nH]c(=O)n(C)c(=O)c43)n2)cn1 [Formula (IV), reference compound] > 20 µM
